Measured values drawn from ChEMBL document CHEMBL4017489 for this set.

target: Nucleoside diphosphate kinase B (Homo sapiens, UniProt P22392); experiment: Binding affinity to NM23-H2 (unknown origin) by SPR analysis
Sequence (P22392 whole entry): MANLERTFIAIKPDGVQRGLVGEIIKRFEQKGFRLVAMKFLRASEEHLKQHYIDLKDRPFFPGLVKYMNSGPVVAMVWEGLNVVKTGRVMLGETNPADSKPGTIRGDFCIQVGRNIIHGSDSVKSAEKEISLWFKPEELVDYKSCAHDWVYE
Task for the reader: assign each of the following compounds its reported Kd.
// note: answer is a bare numeric in µM

### Prompt Requested field: Kd. Item: COc1ccc(/C=C2\CCn3c2nc2cc(NCCCN4CCOCC4)c(F)cc2c3=O)cc1
### Response 28.4

### Prompt I am curious: what Kd value has been reported for O=c1c2cc(F)c(NCCCN3CCCC3)cc2nc2n1CC/C2=C\c1ccc(OCc2ccccc2)cc1O ?
### Response 11.5

### Prompt So what does the record say about Kd for CC(C)Oc1ccc(/C=C2\CCn3c2nc2cc(NCCCN(C)C)c(F)cc2c3=O)cc1 ?
### Response 9.6

### Prompt I would be grateful if you could share the reported Kd for O=C(CCN1CCCC1)Nc1ccc(/C=C2\CCCn3c2nc2cc(NC(=O)CCN4CCCC4)ccc2c3=O)cc1 .
### Response 10.4

### Prompt Entry under review: CN(C)CCNc1cc2nc3n(c(=O)c2cc1F)CC/C3=C\c1ccc(OCc2ccccc2)cc1O . Reported Kd?
### Response 8.1

### Prompt I am curious: what Kd value has been reported for C#CCOc1ccc(/C=C2\CCn3c2nc2cc(NCCCN(C)C)c(F)cc2c3=O)cc1 ?
### Response 25.6

### Prompt GET /values?readout=Kd&item= O=c1c2cc(F)c(NCCCN3CCOCC3)cc2nc2n1CC/C2=C\c1ccc(OCc2ccccc2)cc1
### Response 18.4

### Prompt # get_value(readout='Kd', item= CN(C)CCCNc1cc2nc3n(c(=O)c2cc1F)CC/C3=C\c1ccc(/C=C/c2ccccn2)cc1 )
### Response 8.5

### Prompt Please give the measured Kd for this compound: CCN(CC)CCCNc1cc2nc3n(c(=O)c2cc1F)CC/C3=C\c1ccc(OCc2ccccc2)cc1O
### Response 4.6

### Prompt Given the compound COc1cc(/C=C2\CCn3c2nc2cc(NCCCN4CCOCC4)c(F)cc2c3=O)cc(OC)c1OC , what is its reported Kd?
### Response 18.5

### Prompt So what's the measured Kd for this one? CCN(CC)CCCNc1cc2nc3n(c(=O)c2cc1F)CC/C3=C\c1ccc(OC)cc1
### Response 15.4

### Prompt Given CC(=O)Oc1ccc(/C=C2\CCn3c2nc2cc(NCCCN(C)C)c(F)cc2c3=O)cc1 , state its recorded Kd.
### Response 10.1

### Prompt Kd for O=c1c2cc(F)c(NCCCN3CCOCC3)cc2nc2n1CC/C2=C\c1ccc(OCc2ccccc2)cc1O ?
### Response 14.3

### Prompt Name the reported Kd value associated with the compound CN(C)CCCNc1cc2nc3n(c(=O)c2cc1F)CC/C3=C\c1ccc(Oc2ccccc2)cc1
### Response 12.4

### Prompt Fill blank: measured Kd of the compound CCN(CC)CCCNc1cc2nc3n(c(=O)c2cc1F)CC/C3=C\c1ccc(N(CC)CC)cc1O is ____.
### Response 13.9

### Prompt Could you tell me which Kd is on file for CCCOc1ccc(/C=C2\CCn3c2nc2cc(NCCCN(C)C)c(F)cc2c3=O)cc1 ?
### Response 20.6

### Prompt # query: Kd of entry CCN(CC)CCCNc1cc2nc3n(c(=O)c2cc1F)CC/C3=C\c1ccc(OC)c(OC)c1
### Response 17.1

### Prompt Any idea what Kd was measured for COc1ccc(/C=C2\CCn3c2nc2cc(NCCCN(C)C)c(F)cc2c3=O)cc1OC ?
### Response 15.8
